System: PPARg:RXRa 30nM:10nM, anti-RXR (NR concentration 30 nM, RXRa partner concentration 10 nM)
test.method.notes: PBM binding z-score (relative to random genomic background probes); higher = stronger binding; sequences stand for … in GC…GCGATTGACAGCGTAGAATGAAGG
PBM binding z-score values by entry
Returns: the value as a bare number; no unit string appended.

Below: 5 sequences and their reported PBM binding z-score.
>>> print(df.to_string())
                      sequence_record  value_reported
0  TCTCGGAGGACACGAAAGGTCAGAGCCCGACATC            2.36
1  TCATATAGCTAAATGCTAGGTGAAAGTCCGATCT            2.82
2  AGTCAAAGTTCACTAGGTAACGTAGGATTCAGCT            3.58
3  GCTAGTTGGTCAGTAAAAGTTCACACACCGGTCG           0.387
4  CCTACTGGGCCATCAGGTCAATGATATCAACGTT           0.642

PPARg:RXRa 30nM:10nM, anti-RXR (NR concentration 30 nM, RXRa partner concentration 10 nM) PBM binding z-score of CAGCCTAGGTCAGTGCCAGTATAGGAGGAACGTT is -0.196

PPARg:RXRa 30nM:10nM, anti-RXR (NR concentration 30 nM, RXRa partner concentration 10 nM) PBM binding z-score of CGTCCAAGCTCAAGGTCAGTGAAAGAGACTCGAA is 0.132

PPARg:RXRa 30nM:10nM, anti-RXR (NR concentration 30 nM, RXRa partner concentration 10 nM) PBM binding z-score of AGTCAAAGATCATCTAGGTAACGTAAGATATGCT is 0.643

PPARg:RXRa 30nM:10nM, anti-RXR (NR concentration 30 nM, RXRa partner concentration 10 nM) PBM binding z-score of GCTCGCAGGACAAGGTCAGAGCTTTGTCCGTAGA is -0.968

====

PBM binding z-score values by entry
Tested on: FXR:RXRa (NR concentration 270 nM, RXRa partner concentration 90 nM)
test.method.notes: PBM binding z-score (relative to random genomic background probes); higher = stronger binding; sequences stand for … in GC…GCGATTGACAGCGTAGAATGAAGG
Returns: the value as a bare number; no unit string appended.

Below: 5 sequences and their reported PBM binding z-score.
>>> df
                      sequence_record         readout_type  value_reported
0  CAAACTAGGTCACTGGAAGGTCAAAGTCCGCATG  PBM binding z-score            5.47
1  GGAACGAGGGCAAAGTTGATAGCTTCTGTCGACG  PBM binding z-score            1.24
2  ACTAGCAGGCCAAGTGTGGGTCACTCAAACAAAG  PBM binding z-score          -0.167
3  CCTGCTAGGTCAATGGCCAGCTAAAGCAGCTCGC  PBM binding z-score            3.11
4  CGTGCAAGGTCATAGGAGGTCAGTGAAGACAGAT  PBM binding z-score            7.84

So, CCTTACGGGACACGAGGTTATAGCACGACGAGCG ? Its PBM binding z-score was 0.657

So, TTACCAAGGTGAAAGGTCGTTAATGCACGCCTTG ? Its PBM binding z-score was 3.24

So, CCTCGGAGGACAGAAAGTCAGAGCTGTCCGCTTT ? Its PBM binding z-score was -0.421

So, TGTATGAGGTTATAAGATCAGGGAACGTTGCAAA ? Its PBM binding z-score was 1.68

So, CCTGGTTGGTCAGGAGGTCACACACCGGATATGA ? Its PBM binding z-score was 3.43

So, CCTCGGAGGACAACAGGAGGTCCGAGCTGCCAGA ? Its PBM binding z-score was -0.13

So, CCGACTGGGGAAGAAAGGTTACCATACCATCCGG ? Its PBM binding z-score was 0.169
